- System: APP-Avi-soluble human LOX-1(61-273) (human, UniProt P78380 61-273)
- Assay Protocol: competition ELISA: AGE-BSA binding to plate-bound biotinylated human sLOX-1
Measured pIC50 by item
Please express pIC50 as -log10 of the molar concentration.

Before answering, review these 3 worked examples.
{"Binder": "MOR021468 (antibody, human IgG1, lambda, L234A L235A, V domains shown, also called MOR21468) VH: QVQLLESGGGLVQPGGSLRLSCAASGFTFSDYALHWVRQAPGKGLEWVSVISYAGGFKFYADSVKGRFTISRDNSKNTLYLQMNSLRAEDTAVYYCARSPGLTSYHDSWGQGTLVTVSS VL: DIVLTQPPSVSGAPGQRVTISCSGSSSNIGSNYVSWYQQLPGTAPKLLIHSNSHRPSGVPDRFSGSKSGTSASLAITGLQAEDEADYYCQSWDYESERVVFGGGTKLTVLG", "pIC50": 8.62}
{"Binder": "MOR021433 (antibody, human IgG1, kappa, L234A L235A, V domains shown, also called MOR21433) VH: QVQLVQSGAEVKKPGSSVKVSCKASGGTFSDYAISWVRQAPGQGLEWMGGIMPISGAPYYAQKFQGRVTITADESTSTAYMELSSLRSEDTAVYYCARDSSTSYYYYFDYWGQGTLVTVSS VL: DIQMTQSPSSLSASVGDRVTITCRASQDINSWLAWYQQKPGKAPKLLIYQASNLQSGVPSRFSGSGSGTDFTLTISSLQPEDFATYYCQQIDHTPFTFGQGTKVEIKR", "pIC50": 8.85}
{"Binder": "MOR021435 (antibody, human IgG1, kappa, L234A L235A, V domains shown, also called MOR21435) VH: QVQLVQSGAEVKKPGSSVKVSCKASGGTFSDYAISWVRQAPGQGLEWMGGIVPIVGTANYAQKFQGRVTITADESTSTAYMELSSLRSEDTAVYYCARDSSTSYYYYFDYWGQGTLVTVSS VL: DIQMTQSPSSLSASVGDRVTITCRASQDINSWLAWYQQKPGKAPKLLIYQASNLQSGVPSRFSGSGSGTDFTLTISSLQPEDFATYYCQQMWQFPITFGQGTKVEIKR", "pIC50": 8.77}

Lab note: next binder to report on.
What does the record list as pIC50 for MOR021460 (antibody, human IgG1, lambda, L234A L235A, V domains shown, also called MOR21460) VH: QVQLLESGGGLVQPGGSLRLSCAASGFTFSDYALHWVRQAPGKGLEWVSVISYQGGFIYYADSVKGRFTISRDNSKNTLYLQMNSLRAEDTAVYYCARSPGLTSYHDSWGQGTLVTVSS VL: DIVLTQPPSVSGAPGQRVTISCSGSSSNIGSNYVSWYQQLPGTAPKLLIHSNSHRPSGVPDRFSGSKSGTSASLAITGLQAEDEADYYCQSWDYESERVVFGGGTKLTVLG ?
8.68
